testDetails: melting temperature; fluorescence melt of hairpins on a sequencing array, two-state fit, raised by 9.35 °C to match UV melts
conditionParameters: sodium 0.088 M
measure: Tm (°C)
API: value field is a number in °C; no unit string.

Recorded results for 5 sequences are shown here.
# residueCodes, valueUnit, Tm
rows = [
    ("GATCAGACACTGATC ((((((...))))))", "°C", 48.6),
    ("GGACCAGGAAACCGGTCC (((((.(....).)))))", "°C", 54.6),
    ("GTCCTCGAAAGAGTAGAC ((((((....)))..)))", "°C", 35.9),
    ("GCGATTGGAAACAATCGC (((((((....)))))))", "°C", 69),
    ("GGCTGCGAAAGCATAGCC ((((((....)))..)))", "°C", 57.1),
]

Here is the next item to consider.
Incoming: Looking for the measured Tm of GCCTTAGAAATAAGGC ((((((....)))))) , can you help?
Outgoing: 52.9

====

testDetails: folding enthalpy; higher = less favourable; fluorescence melt of hairpins on a sequencing array, two-state fit
conditionParameters: sodium 0.088 M
measure: folding enthalpy (kcal/mol)
API: value field is a number in kcal/mol; no unit string.

Recorded results for 3 sequences are shown here.
# residueCodes, valueUnit, folding enthalpy
records = [
    ("GACAACCCGAAAGGGGTC (((..(((....))))))", "kcal/mol", -12.9),
    ("GTAATGGGAAACCGTTAC ((((.((....)).))))", "kcal/mol", -34.3),
    ("GATCTAGGAGTAGATC ((((((....))))))", "kcal/mol", -30.2),
]

Incoming: Looking for the measured folding enthalpy of GATCATGCCTATGATC ((((((....)))))) , can you help?
Outgoing: -42.4

Incoming: Looking for the measured folding enthalpy of GTGGATTCGAAAGAACAC (((..(((....)))))) , can you help?
Outgoing: -17.4

Incoming: Looking for the measured folding enthalpy of GCAGCGGGAAACCGCTAC (.(((((....))))).) , can you help?
Outgoing: -11.3

Incoming: Looking for the measured folding enthalpy of GGCACCGGAAACGGTACC ((.((((....)))).)) , can you help?
Outgoing: -22.5

====

testDetails: melting temperature; fluorescence melt of hairpins on a sequencing array, two-state fit, raised by 9.35 °C to match UV melts
conditionParameters: sodium 0.088 M
measure: Tm (°C)
API: value field is a number in °C; no unit string.

Recorded results for 5 sequences are shown here.
# residueCodes, measure, valueObserved
rows = [
    ("GCGGTCGCCCGC ((((....))))", "Tm", 56.7),
    ("GGGCTGGGAAACCAGCTC (.(((((....))))).)", "Tm", 58.7),
    ("GCTGTGGGAAACCATGGC ((..(((....)))..))", "Tm", 44.5),
    ("GTAACCCGAAAGGGTAC (((.(((....))))))", "Tm", 50.1),
    ("GGTAGGAAACTACC (((((....)))))", "Tm", 48.2),
]

Incoming: Looking for the measured Tm of AACACGAAAGTGTT (((((....))))) , can you help?
Outgoing: 56.8

Incoming: Looking for the measured Tm of GATCCGTAATCGGATC ((((((....)))))) , can you help?
Outgoing: 57

====

testDetails: melting temperature; fluorescence melt of hairpins on a sequencing array, two-state fit, raised by 9.35 °C to match UV melts
conditionParameters: sodium 0.088 M
Classify by measured Tm: Y if it is equal to or exceeds 50 °C, N if it is smaller.

A selection of reference data follows.
# residueCodes, classLabel
data = [
    ("GCAACGGGAAACCATTGC ((((.((....)).))))", "N"),
    ("GCCACGCGAAAGCATGGC ((((.((....)).))))", "Y"),
    ("GCTCAGCGAAAGCAGTGC ((.(.((....)).).))", "N"),
    ("GACTTGCGAAAGCATGTC (((.(((....))).)))", "Y"),
    ("GTCATGGGAAACCATGAC (((((((....)))))))", "Y"),
    ("GCCCTGCGAAAGCACCGC ((..(((....)))..))", "N"),
    ("GCTCCCGGAAACGGGGGC ((.((((....)))).))", "Y"),
    ("GACCTTACGAAAGTAGTC (((..(((....))))))", "N"),
]

Incoming: Determine whether measured Tm meets or exceeds 50 °C for GATGGACGAAAGTCAATC (((.(((....))).)))
Outgoing: N

Incoming: Determine whether measured Tm meets or exceeds 50 °C for CGTATCGGAAACGACACG (((.(((....))).)))
Outgoing: N

Incoming: Determine whether measured Tm meets or exceeds 50 °C for GCGAGCCATCGC ((((....))))
Outgoing: Y

Incoming: Determine whether measured Tm meets or exceeds 50 °C for GGCCACGAAAGTGCGCC ((((((....))).)))
Outgoing: Y

Incoming: Determine whether measured Tm meets or exceeds 50 °C for GATCTACGATAGATC ((((((...))))))
Outgoing: N

Incoming: Determine whether measured Tm meets or exceeds 50 °C for GTGCACGGAAACATGCAC (((((.(....).)))))
Outgoing: N

Incoming: Determine whether measured Tm meets or exceeds 50 °C for GCGTGGGACGC ((((...))))
Outgoing: Y

====

testDetails: folding enthalpy; higher = less favourable; fluorescence melt of hairpins on a sequencing array, two-state fit
conditionParameters: sodium 0.088 M
measure: folding enthalpy (kcal/mol)
API: value field is a number in kcal/mol; no unit string.

Incoming: Looking for the measured folding enthalpy of GACAGCGAAAGCTGGTC ((((((....))).))) , can you help?
Outgoing: -11.8

Incoming: Looking for the measured folding enthalpy of GTGAGCGAAAGCTTCCAC ((((((....)))..))) , can you help?
Outgoing: -15.2

Incoming: Looking for the measured folding enthalpy of GATCTGGACCAGATC ((((((...)))))) , can you help?
Outgoing: -39.7

Incoming: Looking for the measured folding enthalpy of GGCCTAGCGAAAGCTGCC (((..(((....)))))) , can you help?
Outgoing: -20.4

Incoming: Looking for the measured folding enthalpy of AGCGTGAAAACGCT (((((....))))) , can you help?
Outgoing: -18.5

====

testDetails: melting temperature; fluorescence melt of hairpins on a sequencing array, two-state fit, raised by 9.35 °C to match UV melts
conditionParameters: sodium 0.088 M
Classify by measured Tm: Condition met if it is equal to or exceeds 50 °C, Condition not met if it is smaller.

A selection of reference data follows.
# residueCodes, classLabel
data = [
    ("GTTTAAGGAAACCTAAAC (((((.(....).)))))", "Condition not met"),
    ("GCGTGCGCACGC ((((....))))", "Condition met"),
    ("GCAAACGCGAAAGCGTGC (((..(((....))))))", "Condition met"),
    ("GAGGACCCGAAAGGGCTC (((..(((....))))))", "Condition not met"),
    ("GTCCACGGAAACGCGGAC ((((.((....)).))))", "Condition met"),
]

Now look at this entry.
Incoming: Determine whether measured Tm meets or exceeds 50 °C for GATCACCCCGTGATC ((((((...))))))
Outgoing: Condition met

====

Each entry below carries its recorded Tm.
testDetails: melting temperature; fluorescence melt of hairpins on a sequencing array, two-state fit, raised by 9.35 °C to match UV melts
conditionParameters: sodium 0.088 M
API: value field is a number in °C; no unit string.

Recorded results for 5 sequences are shown here.
# residueCodes, valueUnit, valueObserved
data = [
    ("GCGGTCGGAAACGATCGC (((.(((....))).)))", "°C", 67.3),
    ("GGATCCGAAAGGAGGTCC ((((((....)))..)))", "°C", 32.9),
    ("GCCGCGCGAAAGCGAAGC ((..(((....)))..))", "°C", 46),
    ("GATCAAGCTATTGATC ((((((....))))))", "°C", 50.2),
    ("GCATACGAAAGTACATGC ((((((....)))..)))", "°C", 38.9),
]

Incoming: Looking for the measured Tm of GGTGCGGGAAACCACACC ((((.((....)).)))) , can you help?
Outgoing: 51.1

Incoming: Looking for the measured Tm of GGGTTCCGAAAGGAGCCC (((.(((....))).))) , can you help?
Outgoing: 67.1

Incoming: Looking for the measured Tm of GGCACTACGAAAGTAGCC (((..(((....)))))) , can you help?
Outgoing: 39.3

Incoming: Looking for the measured Tm of GGTTCGACGAAAGTCACC (((..(((....)))))) , can you help?
Outgoing: 24.9

Incoming: Looking for the measured Tm of GCGTCAAGACGC ((((....)))) , can you help?
Outgoing: 55.1

Incoming: Looking for the measured Tm of GCTCCTGGAAACAGAAGC (((.(((....))).))) , can you help?
Outgoing: 39.9

Incoming: Looking for the measured Tm of GATCCTCGGAAGGATC ((((((....)))))) , can you help?
Outgoing: 50.2
